Test system: GM1 production in Jurkat cells
assayRemarks: cells
Assay type: cell-based
condition: Homo sapiens, Jurkat, 72 h
observationType: pIC50
Bear in mind: pIC50 is minus log10 of a mol/L concentration; give just that figure.

Some solved entries appear below for comparison.
CCCOc1cccc(-c2cc3c(cc2OC)C(NC(=O)O[C@@H]2CN4CCC2CC4)C(C)(C)C3)c1 (stereo partly shown) [Example 340] ... 7.36
CCCOc1ccc(-c2cc3c(cc2OC)C(NC(=O)O[C@@H]2CN4CCC2CC4)C(C)(C)C3)cc1 (stereo partly shown) [Example 319] ... 8.11
CCC1(CC)Cc2cc(-c3cccc(OC(C)C)c3)ccc2C1NC(=O)O[C@@H]1CN2CCC1CC2 (stereo partly shown) [Example 291] ... 7.87
CC1(C)Cc2cc(-c3ccc(N4CCOCC4)c(F)c3)ccc2C1NC(=O)O[C@@H]1CN2CCC1CC2 (stereo partly shown) [Example 152] ... 7.49
CCOc1ccc(-c2cc3c(cc2OC)C(NC(=O)O[C@@H]2CN4CCC2CC4)C(C)(C)C3)cc1F (stereo partly shown) [Example 347] ... 7.33
CCCOc1ccc(-c2ccc3c(c2)CC(C)(C)C3NC(=O)O[C@@H]2CN3CCC2CC3)cc1Cl (stereo partly shown) [Example 207] ... 7.23

Incoming: Given O=C(NC1c2ccc(-c3ccc(C(F)(F)F)cc3)cc2CC12CC2)O[C@@H]1CN2CCC1CC2 (stereo partly shown) [Example 391] , respond with its pIC50.
Outgoing: 7.26

Incoming: Tell me pIC50 reported for COc1cc2c(cc1-c1ccc(C(C)(C)C)cc1)CC(C)(C)C2NC(=O)O[C@@H]1CN2CCC1CC2 (stereo partly shown) [Example 316]
Outgoing: 7.88

Incoming: Give me measured pIC50, please, for this compound: O=C(NC1CCc2ccc(-c3cc(Cl)cc(Cl)c3)cc21)O[C@@H]1CN2CCC1CC2 (stereo partly shown) [Example 48]
Outgoing: 7.18
